Target: human ACC2 (Homo sapiens (Human))
Sequence (O00763 129-2458): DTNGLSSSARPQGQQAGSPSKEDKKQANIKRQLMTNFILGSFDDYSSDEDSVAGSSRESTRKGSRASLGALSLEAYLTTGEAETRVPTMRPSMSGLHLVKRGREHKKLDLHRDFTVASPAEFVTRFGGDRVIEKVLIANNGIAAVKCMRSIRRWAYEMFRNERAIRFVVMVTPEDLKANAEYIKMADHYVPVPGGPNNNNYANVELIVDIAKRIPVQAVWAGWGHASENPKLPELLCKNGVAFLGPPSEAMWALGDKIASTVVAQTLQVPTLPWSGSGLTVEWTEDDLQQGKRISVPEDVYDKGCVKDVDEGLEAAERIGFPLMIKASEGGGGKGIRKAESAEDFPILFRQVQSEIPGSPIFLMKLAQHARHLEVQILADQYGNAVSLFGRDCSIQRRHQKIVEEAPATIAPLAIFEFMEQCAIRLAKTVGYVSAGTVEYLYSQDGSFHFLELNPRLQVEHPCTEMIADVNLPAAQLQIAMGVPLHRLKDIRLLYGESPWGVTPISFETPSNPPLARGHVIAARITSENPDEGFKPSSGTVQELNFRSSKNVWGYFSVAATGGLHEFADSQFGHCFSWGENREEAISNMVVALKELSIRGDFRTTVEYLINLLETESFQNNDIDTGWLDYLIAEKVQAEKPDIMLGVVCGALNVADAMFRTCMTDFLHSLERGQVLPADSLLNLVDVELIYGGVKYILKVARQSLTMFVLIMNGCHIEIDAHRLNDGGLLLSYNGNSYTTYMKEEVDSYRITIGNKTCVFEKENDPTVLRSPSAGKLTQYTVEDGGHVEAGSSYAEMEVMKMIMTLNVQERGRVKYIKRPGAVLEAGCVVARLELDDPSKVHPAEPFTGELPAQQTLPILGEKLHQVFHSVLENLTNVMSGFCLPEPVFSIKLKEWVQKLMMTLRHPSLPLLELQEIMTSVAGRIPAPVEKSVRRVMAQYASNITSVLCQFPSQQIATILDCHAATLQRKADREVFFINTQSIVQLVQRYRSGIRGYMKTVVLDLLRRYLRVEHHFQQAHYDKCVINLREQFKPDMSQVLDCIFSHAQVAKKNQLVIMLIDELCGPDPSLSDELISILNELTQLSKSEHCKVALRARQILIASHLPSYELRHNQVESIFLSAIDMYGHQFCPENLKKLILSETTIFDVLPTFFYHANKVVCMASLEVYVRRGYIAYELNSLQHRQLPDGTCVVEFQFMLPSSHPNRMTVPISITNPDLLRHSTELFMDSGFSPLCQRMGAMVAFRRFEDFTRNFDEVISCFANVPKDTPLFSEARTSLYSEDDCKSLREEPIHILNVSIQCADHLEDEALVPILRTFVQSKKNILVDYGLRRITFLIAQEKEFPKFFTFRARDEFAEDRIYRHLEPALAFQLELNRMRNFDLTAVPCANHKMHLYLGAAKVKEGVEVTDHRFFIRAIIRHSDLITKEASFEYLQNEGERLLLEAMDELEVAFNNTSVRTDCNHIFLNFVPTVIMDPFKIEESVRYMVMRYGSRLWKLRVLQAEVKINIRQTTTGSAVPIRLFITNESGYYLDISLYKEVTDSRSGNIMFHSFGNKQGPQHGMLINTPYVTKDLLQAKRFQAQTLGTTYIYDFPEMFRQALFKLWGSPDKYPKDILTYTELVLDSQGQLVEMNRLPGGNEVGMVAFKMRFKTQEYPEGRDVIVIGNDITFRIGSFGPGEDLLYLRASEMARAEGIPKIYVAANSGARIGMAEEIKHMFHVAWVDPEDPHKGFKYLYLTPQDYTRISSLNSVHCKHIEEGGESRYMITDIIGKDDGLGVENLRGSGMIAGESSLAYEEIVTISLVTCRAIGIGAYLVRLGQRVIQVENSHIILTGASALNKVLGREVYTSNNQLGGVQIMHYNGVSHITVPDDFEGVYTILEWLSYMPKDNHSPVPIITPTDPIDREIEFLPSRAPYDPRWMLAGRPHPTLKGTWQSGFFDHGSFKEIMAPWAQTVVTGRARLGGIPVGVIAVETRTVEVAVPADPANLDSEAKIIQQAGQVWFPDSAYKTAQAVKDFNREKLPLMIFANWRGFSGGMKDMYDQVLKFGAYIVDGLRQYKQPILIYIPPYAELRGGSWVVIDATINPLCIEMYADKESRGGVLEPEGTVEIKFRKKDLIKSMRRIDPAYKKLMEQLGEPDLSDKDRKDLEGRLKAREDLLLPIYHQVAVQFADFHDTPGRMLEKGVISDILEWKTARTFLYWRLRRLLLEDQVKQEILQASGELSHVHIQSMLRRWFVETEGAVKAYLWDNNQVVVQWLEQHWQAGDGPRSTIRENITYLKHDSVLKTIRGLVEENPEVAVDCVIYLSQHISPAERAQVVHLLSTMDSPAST
Experiment: ACC2 assay (spectrophotometric 384 well assay, NADH-linked coupled lactate dehydrogenase/pyruvate kinase)
Format: biochemical
Conditions: hACC2 construct lacking 128 N-terminal amino acids; 25° C., 340 nm, 15 minutes
REPORTED METRIC: IC50 (nM)
The figure you give is taken to be in nM; do not add the unit.

So what's the measured IC50 for this one? CCOc1ccc(N2CC(Oc3ccc([C@H](C)NC(=O)c4cnc(NC(C)=O)s4)cc3)C2)cc1 [Example 8.32]
550

Can you check CCCOc1ccc(N2CC(Oc3ccc([C@H](C)NC(C)=O)cc3)C2)nc1 [Example 1.52] next?
90

Likewise for CC(=O)NC(C)c1ccc(OC2CN(c3ccc(OCC4CC4)cc3)C2)c(F)c1 (stereo not shown) [Example 13] ?
100

Do the same for COc1cc(OC(C)C)ccc1N1CC(Oc2ccc([C@H](C)NC(C)=O)cc2)C1 [Example 1.37] please
2270

Provenance of the data: patent US8530460B2
